test: Compound was tested for their chelating potential (free ligand) determined by distribution coefficient method.; type: ADME; conditions: octanol/water; read-out: mean log D
So basically: is logD under 0.4? Then rule met. Not under? Then rule not met.

(Q) Could you please tell me whether logD recorded for CCc1occc(=O)c1O [E637] is less than 0.4?
(A) rule not met

(Q) Quick check: logD of `CCOCc1cc(=O)c(O)co1` under 0.4?
(A) rule met

(Q) I wonder whether `Cc1cc(=O)c(O)c(C)o1` has logD below 0.4. Can you tell?
(A) rule not met

(Q) Quick check: logD of Oc1cccc2cccnc12 [OXYQUINOLINE] under 0.4?
(A) rule not met

(Q) Consider the compound O=c1cccccc1O [TROPOLONE] . Is its logD strictly less than 0.4?
(A) rule met

(Q) Confirm or reject: logD of `CCCc1oc(C)cc(=O)c1O` lies strictly below 0.4
(A) rule not met

(Q) Determine if `Cc1cc(=O)c(O)co1` shows logD strictly lower than 0.4.
(A) rule met

(Q) Is the reported logD for `O=c1ccocc1O` strictly below 0.4?
(A) rule met

(Q) Consider `CCCCc1oc(C)cc(=O)c1O` . Does its logD lie strictly below 0.4?
(A) rule not met

(Q) Consider the compound `CCCCOCc1cc(=O)c(O)co1` . Is its logD strictly less than 0.4?
(A) rule not met

(Q) Bench note: check whether `CCCOCc1cc(=O)c(O)co1` shows logD below 0.4
(A) rule met

(Q) Criterion: logD strictly below 0.4. Is it met by `NCCn1ccc(=O)c(O)c1` ?
(A) rule met

(Q) hey, is logD for `Cn1cccc(O)c1=O` lower than 0.4 or not?
(A) rule met

(Q) Say whether its logD is strictly beneath 0.4. Entry: `CCCn1cccc(O)c1=O`
(A) rule not met

(Q) Please indicate whether the reported logD of `CCn1cccc(O)c1=O` is strictly below 0.4.
(A) rule met

(Q) Consider `CCCCn1cccc(O)c1=O` . Does its logD lie strictly below 0.4?
(A) rule not met

* * *

For each of the compounds below, state its logD.
test: Compound was tested for their chelating potential (free ligand) determined by distribution coefficient method.; format: ADME; details: octanol/water; read-out: mean log D

(Q) Give its logD value. Item: `Cc1occc(=O)c1O`
(A) 0.05

(Q) logD for `CCCCn1ccc(=O)c(O)c1C` ?
(A) 0.71

(Q) May I ask what logD has been recorded for `CCc1oc(C)cc(=O)c1O` ?
(A) 1.07

(Q) Reported logD, compound `COCc1cc(=O)c(O)co1` : ____
(A) -0.62

The values you see were collected from ChEMBL document CHEMBL1129080.
